// MOR (Homo sapiens) Ki records
Square brackets hold non-standard residues; d marks the D form. Peptide text beside a SMILES is read from it. Dmt = Cc1cc(O)cc(C)c1C[C@H](N)C(=O)O
Please state the figure in nM; there is no need to write the unit.

Guide cases for Ki, answers given:
1. Cc1cc(O)cc(C)c1C[C@H](N)C(=O)N1CCC[C@H]1C(=O)N[C@@H](Cc1ccccc1)C(=O)N[C@@H](Cc1ccccc1)C(=O)N[C@@H](CCC(N)=O)C(=O)N[C@@H](Cc1ccccc1)C(=O)N[C@@H](CCC(N)=O)C(=O)N[C@@H](Cc1ccccc1)C(=O)N[C@@H](CCCCN)C(N)=O [CM-56, Dmt-Pro-Phe-Phe-Gln-Phe*-Gln-Phe-Lys-NH2] (H-[Dmt]PFFQFQFK-NH2; N-terminus assumed) :: 65
2. Cc1cc(O)cc(C)c1C[C@H](N)C(=O)N[C@H](CCCCN)C(=O)N[C@@H](Cc1ccccc1)C(=O)N[C@@H](Cc1ccccc1)C(=O)N[C@@H](CCC(=O)O)C(=O)N[C@@H](Cc1ccccc1)C(=O)N[C@@H](CCC(N)=O)C(=O)N[C@@H](Cc1ccccc1)C(=O)N[C@@H](CCCCN)C(N)=O [CM-53] (H-[Dmt][dK]FFEFQFK-NH2; N-terminus assumed) :: 7.4
3. Cc1cc(O)cc(C)c1C[C@H](N)C(=O)N1CCC[C@H]1C(=O)N[C@@H](Cc1ccccc1)C(=O)N[C@@H](Cc1ccccc1)C(=O)N[C@@H](CCC(=O)O)C(=O)N[C@@H](Cc1ccccc1)C(=O)N[C@@H](CCC(N)=O)C(=O)N[C@@H](Cc1ccccc1)C(=O)N[C@@H](CCCCN)C(N)=O :: 135

Query compound follows.
## Task Param readout= Ki; system= MOR (Homo sapiens); entry= Cc1cc(O)cc(C)c1C[C@H](N)C(=O)N1CCC[C@H]1C(=O)N[C@@H](Cc1c[nH]c2ccccc12)C(=O)N[C@@H](Cc1ccccc1)C(=O)N[C@@H](CCC(N)=O)C(=O)N[C@@H](Cc1ccccc1)C(=O)N[C@@H](CCC(N)=O)C(=O)N[C@@H](Cc1ccccc1)C(=O)N[C@@H](CCCCN)C(N)=O [CM-58, Dmt-Pro-Trp-Phe-Gln-Phe*-Gln-Phe-Lys-NH2] (H-[Dmt]PWFQFQFK-NH2; N-terminus assumed) ; returns value.
## Result 7.5
